Biological target: von Hippel-Lindau disease tumor suppressor/Phospholipid hydroperoxide glutathione peroxidase GPX4 (Homo sapiens) (UniProt P40337+P36969)
Sequence (P36969 whole entry, looked up): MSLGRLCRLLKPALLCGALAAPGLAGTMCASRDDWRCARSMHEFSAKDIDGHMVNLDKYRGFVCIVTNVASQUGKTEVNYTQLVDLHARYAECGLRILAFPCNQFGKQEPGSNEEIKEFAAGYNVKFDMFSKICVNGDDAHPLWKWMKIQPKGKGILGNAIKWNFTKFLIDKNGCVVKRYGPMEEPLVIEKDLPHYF
Sequence (P40337 whole entry, looked up): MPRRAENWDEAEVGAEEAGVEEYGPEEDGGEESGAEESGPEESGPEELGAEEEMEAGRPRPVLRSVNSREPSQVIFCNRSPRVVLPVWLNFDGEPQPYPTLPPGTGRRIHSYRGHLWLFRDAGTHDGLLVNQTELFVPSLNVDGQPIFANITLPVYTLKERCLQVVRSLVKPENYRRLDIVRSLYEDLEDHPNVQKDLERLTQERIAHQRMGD
Assay: PROTAC activity at VHL/GPX4 in human MGC-803 cells assessed as induction of GPX4 degradation at 10 uM incubated for 24 hrs by Western blot analysis
Assay type: cell-based
Form field: Activity (one value per entry).
measurement_kind: Activity

>  <compound>
COc1ccc(N(C(=O)CCl)C(C(=O)NCCc2ccccc2)c2ccc(NC(=O)CCOCCOCCOCCNc3cccc4c3C(=O)N(C3CCC(=O)NC3=O)C4=O)cc2)cc1Cl (stereo not drawn)

>  <measurement_kind>
Activity

>  <result>
< 10%

$$$$
>  <compound>
O=C(Cn1cc(COc2cccc3c2C(=O)N(C2CCC(=O)NC2=O)C3=O)nn1)NCCCCC(=O)Nc1ccc(N(C(=O)CCl)C(C(=O)NCCc2ccccc2)c2cccs2)cc1 (stereo not drawn)

>  <measurement_kind>
Activity

>  <result>
< 10%

$$$$
>  <compound>
Cc1ncsc1-c1ccc([C@H](C)NC(=O)[C@@H]2C[C@@H](O)CN2C(=O)[C@@H](NC(=O)CCCCCCCCC(=O)Nc2ccc(N(C(=O)CCl)C(C(=O)NCCc3ccccc3)c3cccs3)cc2)C(C)(C)C)cc1 (stereo partly drawn)

>  <measurement_kind>
Activity

>  <result>
28.6%

$$$$

###

Target: Protein cereblon/Phospholipid hydroperoxide glutathione peroxidase GPX4 (Homo sapiens) (UniProt Q96SW2+P36969)
Sequence (P36969 whole entry, looked up): as the sequence (P36969 whole entry, looked up) above
Sequence (Q96SW2 whole entry, looked up): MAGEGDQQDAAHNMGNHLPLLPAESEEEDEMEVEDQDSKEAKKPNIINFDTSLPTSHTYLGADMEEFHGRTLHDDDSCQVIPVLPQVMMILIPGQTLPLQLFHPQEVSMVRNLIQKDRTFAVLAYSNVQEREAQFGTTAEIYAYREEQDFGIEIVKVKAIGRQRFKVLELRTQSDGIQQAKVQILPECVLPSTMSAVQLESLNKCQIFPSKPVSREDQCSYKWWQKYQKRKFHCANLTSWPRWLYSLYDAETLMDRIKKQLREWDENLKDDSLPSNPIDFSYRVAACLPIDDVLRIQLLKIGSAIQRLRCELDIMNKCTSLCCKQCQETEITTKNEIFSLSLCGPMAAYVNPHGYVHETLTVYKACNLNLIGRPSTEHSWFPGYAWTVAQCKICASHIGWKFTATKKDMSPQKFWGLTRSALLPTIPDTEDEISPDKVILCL
Experiment: PROTAC activity at CRBN/GPX4 in human MGC-803 cells assessed as induction of GPX4 degradation at 10 uM incubated for 24 hrs by Western blot analysis
Type: cell-based
Form field: Activity (one value per entry).
measurement_kind: Activity (%)

>  <compound>
O=C(CCOCCNc1cccc2c1CN(C1CCC(=O)NC1=O)C2=O)NCCCC(=O)Nc1ccc(N(C(=O)CCl)C(C(=O)NCCc2ccccc2)c2cccs2)cc1 (configuration not stated)

>  <unit_annotation>
%

>  <value_prefix>
<

>  <recorded_number>
10

$$$$
>  <compound>
O=C(CCOCCOCCNc1cccc2c1C(=O)N(C1CCC(=O)NC1=O)C2=O)NCCOCCC(=O)Nc1ccc(N(C(=O)CCl)C(C(=O)NCCc2ccccc2)c2cccs2)cc1 (configuration not stated)

>  <unit_annotation>
%

>  <value_prefix>
=

>  <recorded_number>
16.4

$$$$
>  <compound>
O=C1CCC(N2C(=O)c3cccc(NCCOCCOCCOCCC(=O)Nc4ccc(N(C(=O)CCl)C(C(=O)NCCc5ccccc5)c5cccs5)cc4)c3C2=O)C(=O)N1 (configuration not stated)

>  <unit_annotation>
%

>  <value_prefix>
=

>  <recorded_number>
19.4

$$$$
>  <compound>
O=C(CCOCCNc1cccc2c1C(=O)N(C1CCC(=O)NC1=O)C2=O)NC(=O)Nc1ccc(N(C(=O)CCl)C(C(=O)NCCc2ccccc2)c2cccs2)cc1 (configuration not stated)

>  <unit_annotation>
%

>  <value_prefix>
<

>  <recorded_number>
10

$$$$
>  <compound>
O=C1CCC(N2C(=O)c3cccc(NCCOCCOCCOCCC(=O)N4CCN(CC(=O)Nc5ccc(N(C(=O)CCl)C(C(=O)NCCc6ccccc6)c6cccs6)cc5)CC4)c3C2=O)C(=O)N1 (configuration not stated)

>  <unit_annotation>
%

>  <value_prefix>
<

>  <recorded_number>
10

$$$$
>  <compound>
O=C(CCOCCNc1cccc2c1C(=O)N(C1CCC(=O)NC1=O)C2=O)NCCCC(=O)Nc1ccc(N(C(=O)CCl)C(C(=O)NCCc2ccccc2)c2cccs2)cc1 (configuration not stated)

>  <unit_annotation>
%

>  <value_prefix>
=

>  <recorded_number>
33.8

$$$$
>  <compound>
O=C(CCOCCNc1cccc2c1C(=O)N(C1CCC(=O)NC1=O)C2=O)NCCCCC(=O)Nc1ccc(N(C(=O)CCl)C(C(=O)NCCc2ccccc2)c2cccs2)cc1 (configuration not stated)

>  <unit_annotation>
%

>  <value_prefix>
<

>  <recorded_number>
10

$$$$
>  <compound>
O=C1CCC(N2C(=O)c3cccc(NCCOCCC(=O)N4CCN(CC(=O)Nc5ccc(N(C(=O)CCl)C(C(=O)NCCc6ccccc6)c6cccs6)cc5)CC4)c3C2=O)C(=O)N1 (configuration not stated)

>  <unit_annotation>
%

>  <value_prefix>
=

>  <recorded_number>
33

$$$$
>  <compound>
O=C1CCC(N2C(=O)c3cccc(NCCOCCOCCC(=O)N4CCN(CC(=O)Nc5ccc(N(C(=O)CCl)C(C(=O)NCCc6ccccc6)c6cccs6)cc5)CC4)c3C2=O)C(=O)N1 (configuration not stated)

>  <unit_annotation>
%

>  <value_prefix>
=

>  <recorded_number>
18.2

$$$$
>  <compound>
O=C(CCOCCNc1cccc2c1C(=O)N(C1CCC(=O)NC1=O)C2=O)NCCCCCCC(=O)Nc1ccc(N(C(=O)CCl)C(C(=O)NCCc2ccccc2)c2cccs2)cc1 (configuration not stated)

>  <unit_annotation>
%

>  <value_prefix>
<

>  <recorded_number>
10

$$$$
>  <compound>
O=C(CCOCCNc1cccc2c1C(=O)N(C1CCC(=O)NC1=O)C2=O)NCCOCCC(=O)Nc1ccc(N(C(=O)CCl)C(C(=O)NCCc2ccccc2)c2cccs2)cc1 (configuration not stated)

>  <unit_annotation>
%

>  <value_prefix>
=

>  <recorded_number>
30.1

$$$$
>  <compound>
O=C1CCC(N2C(=O)c3cccc(OCC(=O)Nc4ccc(N(C(=O)CCl)C(C(=O)NCCc5ccccc5)c5cccs5)cc4)c3C2=O)C(=O)N1 (configuration not stated)

>  <unit_annotation>
%

>  <value_prefix>
<

>  <recorded_number>
10

$$$$
